target: L-CPT1 (Homo sapiens, UniProt P50416)
Sequence (P50416 1-773): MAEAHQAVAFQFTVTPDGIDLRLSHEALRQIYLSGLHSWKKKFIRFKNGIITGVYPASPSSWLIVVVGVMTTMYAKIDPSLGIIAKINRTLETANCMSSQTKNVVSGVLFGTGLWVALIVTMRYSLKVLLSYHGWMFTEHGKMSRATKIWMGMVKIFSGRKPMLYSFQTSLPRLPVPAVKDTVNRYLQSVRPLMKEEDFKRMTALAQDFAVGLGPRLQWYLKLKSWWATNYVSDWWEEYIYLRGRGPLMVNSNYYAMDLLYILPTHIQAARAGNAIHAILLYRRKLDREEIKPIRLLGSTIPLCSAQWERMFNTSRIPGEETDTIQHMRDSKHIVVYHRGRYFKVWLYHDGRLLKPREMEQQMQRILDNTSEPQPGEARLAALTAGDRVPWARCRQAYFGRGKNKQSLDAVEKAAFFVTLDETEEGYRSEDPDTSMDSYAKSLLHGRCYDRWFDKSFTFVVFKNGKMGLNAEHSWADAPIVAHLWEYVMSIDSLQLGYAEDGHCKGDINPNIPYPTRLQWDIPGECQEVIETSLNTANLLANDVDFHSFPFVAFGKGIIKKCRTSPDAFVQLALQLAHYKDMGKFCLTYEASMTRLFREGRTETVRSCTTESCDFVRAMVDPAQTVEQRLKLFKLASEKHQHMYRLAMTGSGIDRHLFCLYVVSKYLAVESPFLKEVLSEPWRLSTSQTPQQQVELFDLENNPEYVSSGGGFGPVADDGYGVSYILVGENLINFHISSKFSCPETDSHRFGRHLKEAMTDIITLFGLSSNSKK
runDescription: L-CPT1 inhibition, spectrophotometric CPT activity assay with DTNB (Ellman's reagent)
condition: human liver CPT1 expressed in P. pastoris, cell extracts; carnitine 500 μM, palmitoyl-CoA 80 μM, DTNB 300 μM, pH 7.4
pIC50: −log10 of the molar value.

lineNotation: COc1ccc(Cl)cc1S(=O)(=O)N1CCc2ccc(C(=O)Nc3ccc(C(=O)O)cc3)cc21
pIC50: 7.69
//
lineNotation: O=C(Nc1ccc(C(=O)O)c(Cl)c1)c1ccc2c(c1)N(S(=O)(=O)c1cccc(Cl)c1)CC2
pIC50: 6.80
//
lineNotation: COc1ccc(Cl)cc1S(=O)(=O)N1CCc2ccc(C(=O)Nc3ccc(C(=O)O)c(F)c3)cc21
pIC50: 7.14
